- Test system: ME-180 (Cervical Carcinoma);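 note: after 72 h of two-drug dosing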
- Assay Overview: Bliss excess, mean over the matrix (fraction); higher = more synergy
Here, each record is paired with measured Bliss excess data.
Form: value (number only, do not type unit).

Solved cases below.
INSERT INTO assay_data (compound, readout_name, quantitative_readout) VALUES
  ('C[C@@H](Oc1cc(-c2cnn(C3CCNCC3)c2)cnc1N)c1c(Cl)ccc(F)c1Cl [Crizotinib] + CC1=C(C(=CC=C1)Cl)NC(=O)C2=CN=C(S2)NC3=CC(=NC(=N3)C)N4CCN(CC4)CCO [Dasatinib] (first compound max 10 µM, 7x7, partner max 2 µM)', 'Bliss excess', 0.038),
  ('CC1(C)CCC(CN2CCN(c3ccc(C(=O)NS(=O)(=O)c4ccc(NCC5CCOCC5)c([N+](=O)[O-])c4)c(Oc4cnc5[nH]ccc5c4)c3)CC2)=C(c2ccc(Cl)cc2)C1 [Venetoclax] + C1CN(CCC1(C(=O)N[C@@H](CCO)C2=CC=C(C=C2)Cl)N)C3=NC=NC4=C3C=CN4 [Capivasertib] (first compound max 1 µM, 7x7, partner max 3 µM)', 'Bliss excess', -0.0015),
  ('CN(CCO)CC[C@H](CSc1ccccc1)Nc1ccc(S(=O)(=O)NC(=O)c2ccc(N3CCC([C@@H](O)c4ccccc4-c4ccc(Cl)cc4)CC3)cc2)cc1S(=O)(=O)C(F)(F)F [AZD4320] + CCN(CCO)CCCOc1ccc2c(Nc3cc(CC(=O)Nc4cccc(F)c4)[nH]n3)ncnc2c1 [AZD2811] (first compound max 1 µM, 7x7, partner max 1 µM)', 'Bliss excess', 0.0343);

Attention now turns to another entry.
So, Cc1nc(-c2cn3c(n2)-c2ccc(-c4cnn(C(C)(C)C(N)=O)c4)cc2OCC3)n(C(C)C)n1 [Taselisib] + O=C(Nc1ccc2[nH]nc(-c3ccncc3)c2c1)[C@@H]1CCN(CC(=O)N2CCN(c3ccc(-c4ncccn4)cc3)CC2)C1 [SCH772984] (first compound max 10 µM, 7x7, partner max 5 µM) ? Its Bliss excess was 0.0324

---

Here, each record is paired with measured combination Emax data.
- Test system: NCI-H522 (Lung Adenocarcinoma)
- Assay Overview: combination Emax (second highest fraction inhibited in the dose matrix, 72 h); higher = more inhibition; extreme values may be limits of the assay
Form: value (number only, do not type unit).

Solved cases below.
INSERT INTO results (molecule, tested_system, quantitative_readout) VALUES
  ('CN(C)CCCOc1ccc(-c2ccc3ncc4c(c3c2)n(C2CCOCC2)c(=O)n4C)cn1 [AZD0156] + CCN(CCO)CCCOc1ccc2c(Nc3cc(CC(=O)Nc4cccc(F)c4)[nH]n3)ncnc2c1 [AZD2811] (first compound max 1 µM, 7x7, partner max 1 µM)', 'NCI-H522 (Lung Adenocarcinoma)', 0.0622),
  ('CC1(C)CCC(CN2CCN(c3ccc(C(=O)NS(=O)(=O)c4ccc(NCC5CCOCC5)c([N+](=O)[O-])c4)c(Oc4cnc5[nH]ccc5c4)c3)CC2)=C(c2ccc(Cl)cc2)C1 [Venetoclax] + CN(C)CCCOc1ccc(-c2ccc3ncc4c(c3c2)n(C2CCOCC2)c(=O)n4C)cn1 [AZD0156] (first compound max 1 µM, 7x7, partner max 1 µM)', 'NCI-H522 (Lung Adenocarcinoma)', 0.141),
  ('C=CCn1c(=O)c2cnc(Nc3ccc(N4CCN(C)CC4)cc3)nc2n1-c1cccc(C(C)(C)O)n1 [AZD1775] + C[C@@H]1COCCN1C2=NC(=NC(=C2)C3(CC3)[S@](=N)(=O)C)C4=C5C=CNC5=NC=C4 [AZD6738] (first compound max 1 µM, partner max 10 µM)', 'NCI-H522 (Lung Adenocarcinoma)', 0.487);

Attention now turns to another entry.
So, COc1cccc(OCCCN)c1-c1cc(Nc2cnc(C#N)cn2)n[nH]1 [Prexasertib] + C[C@@H]1COCCN1C2=NC(=NC(=C2)C3(CC3)[S@](=N)(=O)C)C4=C5C=CNC5=NC=C4 [AZD6738] (first compound max 1 µM, 7x7, partner max 10 µM) ? Its combination Emax was 0.388
